The reported measurements were obtained from paper PMC12042621.

- MEASURED_ON: Green Fluorescent Protein (Aequorea victoria, laboratory variant …)
- ASSAY_OVERVIEW: SPR
pKd for assorted binders
Scale: negative log10 of molar concentration, which is what pKd denotes.

// below: answered binders
Entry under review: LaG43 (VHH) VHH: DVQLVESGGGLVQPGGSLRLSCEASGGAFSTVAMGWFRQAPGKEREFVGAITWTAGSTYYADSAKGRFTISRDNAKNTVHLQMNSLKPEDTAVYYCAQRVRGFFGPLRTTPSWYEYWGQGTQVTVSG . Reported pKd?
7.96

Reported pKd, binder LaG21_(L69F) (VHH) VHH: QVQLVESGGGLVQAGGSLRLSCAASGPTGAMAWFRQAPGMEREFVGGISGSETDTYYADFVKGRFTVDRDNVKNTVDLQMNSLKPEDTAVYYCAARRRVTLFTSRADYDFWGQGTQVTVSG : ____
9.15

Please look up its pKd: LaG41 (VHH) VHH: DVQLVESGGGLVQAGGSLRLSCAASGPTGAMAWFRQAPGKEREFVGGISGSETDTYYVDSVKGRFTVDRDNVKNTVYLQMNSLKPEDTAVYYCAARRRITLFTSRTDYDFWGRGTQVTVGL
9.05

Please give the measured pKd for this binder: LaG19_(S102R) (VHH) VHH: QVQLVESGGGLVQAGGSLRLSCAASGPTGAMAWFRQAPGKEREFVGGISRSGTDTYYVDSVKGRFTIDRDNAKNTVYLQMNSLKPEDTAVYYCAARRRQILFTSRTDYEFWGQGTQVTVSG
9.22

Given the binder LaG21 (VHH) VHH: QVQLVESGGGLVQAGGSLRLSCAASGPTGAMAWFRQAPGMEREFVGGISGSETDTYYADFVKGRLTVDRDNVKNTVDLQMNSLKPEDTAVYYCAARRRVTLFTSRADYDFWGQGTQVTVSG , what is its reported pKd?
8.15

---
Report pKd for LaG16 (VHH) VHH: QVQLVESGGRLVQAGDSLRLSCAASGRTFSTSAMAWFRQAPGREREFVAAITWTVGNTILGDSVKGRFTISRDRAKNTVDLQMDNLEPEDTAVYYCSARSRGYVLSVLRSVDSYDYWGQGTQVTVSG please.
9.15
